# Experimental target: IDO1 enzyme (Homo sapiens, UniProt P14902)
# Sequence (P14902 whole entry): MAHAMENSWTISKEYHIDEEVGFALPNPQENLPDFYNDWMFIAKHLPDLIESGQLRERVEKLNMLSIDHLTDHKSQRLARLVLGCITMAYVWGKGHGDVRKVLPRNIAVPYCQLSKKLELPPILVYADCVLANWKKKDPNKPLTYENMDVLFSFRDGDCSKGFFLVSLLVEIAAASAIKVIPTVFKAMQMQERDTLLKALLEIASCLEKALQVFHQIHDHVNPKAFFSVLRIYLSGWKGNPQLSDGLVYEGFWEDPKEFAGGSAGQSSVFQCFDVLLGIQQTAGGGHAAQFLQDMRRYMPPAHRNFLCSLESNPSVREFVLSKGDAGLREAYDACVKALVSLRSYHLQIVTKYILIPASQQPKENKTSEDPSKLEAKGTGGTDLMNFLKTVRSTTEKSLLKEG
# Test name: Determination of biochemical activity of IDO1 enzyme (absorbance at 320 nm)
# Condition set: room temperature, 3 hours
Listed compounds paired with reported IC50

>  <Compound>
OCCNC(=S)Nc1nonc1/C(=N/O)Nc1ccc(F)c(Br)c1

>  <Experimental target>
IDO1 enzyme (Homo sapiens, UniProt P14902)

>  <Observation type>
IC50

>  <Result>
< 0.001 µM

$$$$
>  <Compound>
CC(C)NC(=O)Nc1nocc1/C(=N/O)Nc1ccc(F)c(Br)c1

>  <Experimental target>
IDO1 enzyme (Homo sapiens, UniProt P14902)

>  <Observation type>
IC50

>  <Result>
0.1 to 1 µM

$$$$
>  <Compound>
O/N=C(\Nc1ccc(F)c(Br)c1)c1nonc1NC(=S)NC1CCC(O)CC1 (stereo not drawn)

>  <Experimental target>
IDO1 enzyme (Homo sapiens, UniProt P14902)

>  <Observation type>
IC50

>  <Result>
< 0.001 µM

$$$$

[in] Entry NS(=O)(=O)N1CCN(C(=O)Nc2nonc2/C(=N/O)Nc2ccc(F)cc2)CC1 needs its IC50 filled in; supply it.
[out] < 0.001 µM

[in] Entry O=C(NCCCO)Nc1conc1/C(=N/O)Nc1ccc(F)c(Br)c1 needs its IC50 filled in; supply it.
[out] < 0.001 µM

[in] Entry NCCNC(=O)Nc1conc1/C(=N/O)Nc1ccc(F)c(Br)c1 needs its IC50 filled in; supply it.
[out] < 0.001 µM

[in] Entry O=C(Nc1ccccc1)Nc1nonc1/C(=N/O)Nc1ccc(F)c(Br)c1 needs its IC50 filled in; supply it.
[out] 0.1 to 1 µM

[in] Entry O=C(Nc1ccncc1)Nc1nonc1/C(=N/O)Nc1ccc(F)c(Br)c1 needs its IC50 filled in; supply it.
[out] 0.1 to 1 µM

====

# Experimental target: UniProt:P14902
# Test name: Determination of biochemical activity of IDO1 enzyme (absorbance at 320 nm)
# Condition set: room temperature, 3 hours
Observation type: IC50

>  <Compound>
O/N=C(\Nc1ccc(F)c(Br)c1)c1nonc1NC(=S)Nc1ccccc1 [Embodiment 116]

>  <IC50>
0.1 to 1 µM

$$$$
>  <Compound>
NCCNC(=S)Nc1nonc1/C(=N/O)Nc1ccc(F)c(Br)c1 [Embodiment 129]

>  <IC50>
0.1 to 1 µM

$$$$

[in] Entry O=C(Nc1nocc1/C(=N/O)Nc1ccc(F)c(Br)c1)NC1CCC(O)CC1 (stereo not shown) [Embodiment 84] needs its IC50 filled in; supply it.
[out] 0.1 to 1 µM

[in] Entry O=C(Nc1cocc1/C(=N/O)Nc1ccc(F)c(Br)c1)Nc1cccc2[nH]ccc12 [Embodiment 73] needs its IC50 filled in; supply it.
[out] 0.1 to 1 µM

[in] Entry O/N=C(\Nc1ccc(F)c(Br)c1)c1nonc1NC(=S)NC1CC1 [Embodiment 125] needs its IC50 filled in; supply it.
[out] > 1 µM

[in] Entry COc1ccc(NC(=O)Nc2conc2/C(=N/O)Nc2ccc(F)c(Cl)c2)cc1 [Embodiment 112] needs its IC50 filled in; supply it.
[out] 0.1 to 1 µM

[in] Entry O=C(Nc1ncc[nH]1)Nc1nonc1/C(=N/O)Nc1ccc(F)c(Br)c1 [Embodiment 46] needs its IC50 filled in; supply it.
[out] > 1 µM

[in] Entry O=C(Nc1nonc1/C(=N/O)Nc1ccc(F)c(Br)c1)NC1CCCCC1 [Embodiment 7] needs its IC50 filled in; supply it.
[out] 0.1 to 1 µM

[in] Entry COc1ccc(NC(=S)Nc2nonc2/C(=N/O)Nc2ccc(F)c(Br)c2)c(F)c1 [Embodiment 120] needs its IC50 filled in; supply it.
[out] > 1 µM

[in] Entry N=C(Nc1nonc1/C(=N/O)Nc1ccc(F)c(Br)c1)NC1CCC(O)CC1 (stereo not shown) [Embodiment 147] needs its IC50 filled in; supply it.
[out] < 0.001 µM

[in] Entry N#Cc1ccc(NC(=O)Nc2nonc2/C(=N/O)Nc2ccc(F)cc2)cc1 [Embodiment 57] needs its IC50 filled in; supply it.
[out] > 1 µM

[in] Entry O=C(Nc1cccnc1)Nc1cocc1/C(=N/O)Nc1ccc(F)c(Br)c1 [Embodiment 75] needs its IC50 filled in; supply it.
[out] 0.1 to 1 µM

[in] Entry O=C(Nc1nocc1/C(=N/O)Nc1ccc(F)c(Cl)c1)NC1CCCCC1 [Embodiment 99] needs its IC50 filled in; supply it.
[out] 0.1 to 1 µM

[in] Entry NCCCNC(=O)Nc1nonc1/C(=N/O)Nc1ccc(F)c(Br)c1 [Embodiment 14] needs its IC50 filled in; supply it.
[out] < 0.001 µM

[in] Entry O=C(Nc1ncccn1)Nc1nonc1/C(=N/O)Nc1ccc(F)c(Br)c1 [Embodiment 43] needs its IC50 filled in; supply it.
[out] > 1 µM

[in] Entry O/N=C(\Nc1ccc(F)c(Br)c1)c1cocc1NC(=S)NC1CCCCC1 [Embodiment 138] needs its IC50 filled in; supply it.
[out] 0.1 to 1 µM
